Biological target: ROR1 (antigen of the KD determination and of the Octet dissociation measurement) (UniProt Q01973 30-403, limits assumed)
Sequence (Q01973 30-403 limits assumed): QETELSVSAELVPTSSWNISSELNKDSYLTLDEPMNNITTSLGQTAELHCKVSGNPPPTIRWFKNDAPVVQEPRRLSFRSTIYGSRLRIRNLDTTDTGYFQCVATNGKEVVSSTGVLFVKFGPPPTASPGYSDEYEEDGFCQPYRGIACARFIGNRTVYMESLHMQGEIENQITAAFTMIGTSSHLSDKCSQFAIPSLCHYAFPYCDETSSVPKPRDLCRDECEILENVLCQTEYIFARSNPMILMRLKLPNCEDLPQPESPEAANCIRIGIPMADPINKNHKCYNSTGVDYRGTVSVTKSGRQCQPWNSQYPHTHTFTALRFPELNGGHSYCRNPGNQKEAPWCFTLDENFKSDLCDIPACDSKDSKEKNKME
Assay: method not stated (conventional procedures)
ENDPOINT: kon (M⁻¹ s⁻¹)
The answer is to be given in M⁻¹ s⁻¹; state only the numeric part.

Some solved cases for reference:
{"columns": ["BINDER", "UNIT_ABBREVIATION", "kon"],
 "data": [
  ["PR001370 (antibody, V domains shown, fully human IgG1, kappa) VH: EVQLLESGGGVVQPGRSLRLSCAASGFTFSSYGMHWVRQAPGKGLEWVAVKWYDGISQNFADSVKGRFTISRDNSKNTLYLQMNSLRAEDTAVYYCARDLARSFDLWGRGTLVTVSS VL: DIVMTQSPSTLSASVGDRVTITCRASQSINNWLAWYQQKPGKAPKLLIYKASSLESGVPSRFSGSGSGTEFTLTISSLQPDDFATYYCQQYNSYSPMYTFGQGTKVDIKR", "M⁻¹ s⁻¹", 285000],
  ["PR001355 (antibody, human IgG1, kappa, V domains shown, fully human IgG1, kappa) VH: QVQLVQSGGGLVQPGGSLRLSCAASGFTFSSYGMHWVRQAPGKGLEWVAVIWYDGSNKDYADSVKGRFTISRDTSKNTLYLQMNSLRAEDTAVYYCVREQARSFDLWGRGTLVTVSS VL: DIQMTQSPSSLSASVGDRVTITCRASQTMNNWLAWYQQKPGKAPKLLIYKASSLESGVPSRFSGSGSGTEFTLTISSLQPDDSATYYCQQYNSYSPMYTFGQGTKLEIKR", "M⁻¹ s⁻¹", 347000]
]}

Alright, here's another binder for you.
Value of kon reported for the binder PR001352 (antibody, human IgG1, kappa, V domains shown, fully human IgG1, kappa) VH: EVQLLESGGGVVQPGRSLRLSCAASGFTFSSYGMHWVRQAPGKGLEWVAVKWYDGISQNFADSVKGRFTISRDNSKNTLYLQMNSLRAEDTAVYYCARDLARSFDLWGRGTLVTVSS VL: DIQLTQSPSSLSASVGDRVTITCRASQTINNWLAWYQQKPGKAPKLLIYKASSLESGVPSRFSGSGSGTEFTLTISSLQPDDFATYYCQQYNSYSPMYTFGQGTKVEIKR is 316000
